# Target under test: NRAS WT (Homo sapiens (Human), UniProt P01111+P62937)
# Sequence (P01111 whole entry): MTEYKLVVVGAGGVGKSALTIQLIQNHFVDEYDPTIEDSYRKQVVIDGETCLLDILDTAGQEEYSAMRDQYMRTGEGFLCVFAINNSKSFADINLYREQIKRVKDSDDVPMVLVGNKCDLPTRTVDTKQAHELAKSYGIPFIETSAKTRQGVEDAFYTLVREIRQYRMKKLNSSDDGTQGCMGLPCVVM
# Sequence (P62937 whole entry): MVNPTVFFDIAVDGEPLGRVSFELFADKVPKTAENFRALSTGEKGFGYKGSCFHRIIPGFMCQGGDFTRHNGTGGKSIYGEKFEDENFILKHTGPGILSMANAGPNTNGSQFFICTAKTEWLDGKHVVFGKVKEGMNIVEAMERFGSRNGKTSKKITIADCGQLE
# Method: Ras-Raf (BRAF RBD) disruption / FRET / MOA assay, NRAS WT
# Format: biochemical
# Measurement setup: read-out: IC50* NRAS WT FRET data
pIC50: −log10 of the molar value.
Collected pIC50 values appear next to each entry.

- Molecule: "CO[C@@H](C)c1ncccc1-c1c2c3nc(ccc3n1CC(F)(F)F)-c1cccc(c1)C[C@H](NC(=O)[C@@H](COC1CN(C(=O)C#CC(C)(C)N(C)C)C1)C(C)C)C(=O)N1CCC[C@H](N1)C(=O)OCC(C)(C)C2 (atropisomer, axis not shown) [Example A724]"
  Measured metric: "pIC50"
  Data value: "< 5.00"
- Molecule: "C=CC(=O)N1CC[C@H](C(=O)N(C)[C@H](C(=O)N[C@H]2CC3=NN=C(O3)c3ccc4c(c3)c(c(-c3cccnc3[C@H](C)OC)n4CC)CC(C)(C)COC(=O)[C@@H]3CCCN(N3)C2=O)C(C)C)C1 (atropisomer, axis not shown) [Example A447]"
  Measured metric: "pIC50"
  Data value: "5.00 to 6.00"
- Molecule: "C=C(C)C(=O)N1CC2(CCN(C(=O)N(C)[C@H](C(=O)N[C@H]3Cc4nc(cs4)-c4ccc5c(c4)c(c(-c4cccnc4[C@H](C)OC)n5CC)CC(C)(C)COC(=O)[C@@H]4CCCN(N4)C3=O)C(C)C)CC2)C1 (atropisomer, axis not shown) [Example A651]"
  Measured metric: "pIC50"
  Data value: "6.00 to 7.00"

## Task Query (molecule): C=CC(=O)N1CCC2(CC1)CCN(C(=O)N(C)[C@H](C(=O)N[C@H]1Cc3nc(cs3)-c3ccc4c(c3)c(c(-c3cccnc3[C@H](C)OC)n4CC)CC(C)(C)COC(=O)[C@@H]3CCCN(N3)C1=O)C(C)C)CC2 (atropisomer, axis not shown) [Example A697] ; field requested: pIC50
## Result 7.00 to 8.00

====

Below, each of the compounds is paired with its reported IC50 value.
# Target under test: NRAS G12C (Homo sapiens (Human), UniProt P01111+P62937, G12C)
# Sequence (P01111 whole entry G12C, one chain of several): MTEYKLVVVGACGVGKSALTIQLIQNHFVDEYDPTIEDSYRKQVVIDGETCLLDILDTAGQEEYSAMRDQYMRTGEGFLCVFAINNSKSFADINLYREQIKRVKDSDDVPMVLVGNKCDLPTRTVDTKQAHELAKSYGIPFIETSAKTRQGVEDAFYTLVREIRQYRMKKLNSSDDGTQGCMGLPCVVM
# Method: Ras-Raf (BRAF RBD) disruption / FRET / MOA assay, NRAS G12C
# Type: biochemical
# Measurement setup: read-out: IC50* NRAS G12C FRET data
# Experimental: The purpose of this biochemical assay is to measure the ability of test compounds to facilitate ternary complex formation between a nucleotide-loaded Ras isoform and cyclophilin A; the resulting ternary complex disrupts binding to a BRAF^RBD construct, inhibiting Ras signaling through a RAF effector. Compound is present in plate wells as a 10-point 3-fold dilution series starting at a final concentration of 30 μM. […]

Examples with answers:
- Compound: "CCn1c(-c2cccnc2[C@H](C)OC)c2c3cc(ccc31)N1CCC[C@@H](C[C@H](NC(=O)[C@H](C(C)C)N(C)C(=O)C3(F)CCN(C(=O)C#CC(C)(C)N(C)C)CC3)C(=O)N3CCC[C@H](N3)C(=O)OCC(C)(C)C2)C1 (atropisomer, axis not shown) [Example A615]"
  IC50: "10 to 100 nM"
- Compound: "C=CC(=O)N1C[C@@H]2[C@H](C1)[C@@H]2C(=O)N(C)[C@H](C(=O)N[C@H]1Cc2cc(O)cc(c2)-c2ccc3c(c2)c(c(-c2cccnc2[C@H](C)OC)n3CC)CC(C)(C)COC(=O)[C@@H]2CCCN(N2)C1=O)C(C)C (atropisomer, axis not shown) [Example A319]"
  IC50: "10 to 100 nM"
- Compound: "C=CC(=O)N1CC[C@H](C(=O)N(C)[C@H](C(=O)N[C@H]2Cc3cccc(c3)-c3ccc4c(c3)c(c(-c3cccnc3[C@H](C)OC)n4CC)CC(C)(C)COC(=O)[C@@H]3CCCN(N3)C2=O)C2CCC2)C1 (atropisomer, axis not shown) [Example A321]"
  IC50: "100 to 1000 nM"
- Compound: "CCn1c(-c2cccnc2[C@H](C)OC)c2c3cc(ccc31)C1CCCN(C1)C[C@H](NC(=O)[C@@H](COC1CN(C(=O)C#CC(C)(C)N(C)C)C1)C(C)C)C(=O)N1CCC[C@H](N1)C(=O)OCC(C)(C)C2 [Example A646]"
  IC50: "10 to 100 nM"
- Compound: "CC#CC(=O)N1CC[C@@H](C(=O)N(C)[C@H](C(=O)N[C@H]2Cc3cc(O)cc(c3)-c3ccc4c(c3)c(c(-c3cncnc3)n4CC)CC(C)(C)COC(=O)[C@@H]3CCCN(N3)C2=O)C(C)C)C1 [Example A169]"
  IC50: "100 to 1000 nM"
- Compound: "C=CC(=O)N1CC[C@H](C(=O)N(C)[C@H](C(=O)N[C@H]2CC3=NN=C(S3)c3ccc4c(c3)c(c(-c3cccnc3[C@H](C)OC)n4CC)CC(C)(C)COC(=O)[C@@H]3CCCN(N3)C2=O)C(C)C)C1 (atropisomer, axis not shown) [Example A248]"
  IC50: "1000 to 10000 nM"

## Task What does the data say about its IC50? Entry: CCn1c(-c2cccnc2[C@H](C)OC)c2c3cc(ccc31)-c1cccc(n1)C[C@H](NC(=O)[C@H](C(C)C)N(C)C(=O)N1CCC13CN(C(=O)C#CC(C)(C)N(C)C)C3)C(=O)N1CCC[C@H](N1)C(=O)OCC(C)(C)C2 (atropisomer, axis not shown) [Example A623]
## Result 100 to 1000 nM

## Task Can you share its IC50? I mean this compound: C=CC(=O)N1CC[C@H](C(=O)N(C)[C@H](C(=O)N[C@H]2Cc3cccc(c3)-c3ccc4c(c3)c(c(-c3cccnc3[C@H](C)OC)n4CC)CC(C)(C)COC(=O)[C@@H]3CCCN(N3)C2=O)C(C)C)[C@@H]1C (atropisomer, axis not shown) [Example A480]
## Result 1000 to 10000 nM

====

A collection of molecules and their measured pIC50
# Target under test: KRAS G12D (Homo sapiens (Human), UniProt P01116+P62937, G12D)
# Sequence (P01116-2 other isoform, or with tags, fused parts or gaps G12D, one chain of several): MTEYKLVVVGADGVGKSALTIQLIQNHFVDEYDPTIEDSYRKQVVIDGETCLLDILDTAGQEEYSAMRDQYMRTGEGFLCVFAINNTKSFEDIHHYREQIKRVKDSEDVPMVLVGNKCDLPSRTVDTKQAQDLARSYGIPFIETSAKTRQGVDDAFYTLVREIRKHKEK
# Method: Ras-Raf (BRAF RBD) disruption / FRET / MOA assay, KRAS G12D
# Assay type: biochemical
# Measurement setup: Ras-Raf disruption/FRET/MOA assay; class symbols; read-out: KRAS G12D FRET data IC50
pIC50: −log10 of the molar value.

Solved cases (2 shown):
- Molecule: "C=CC(=O)N1CC[C@H](C(=O)N(C)[C@H](C(=O)N[C@H]2Cc3cc(CF)cc(c3)-c3ccc4c(c3)c(c(-c3cccnc3[C@H](C)OC)n4CC)CC(C)(C)COC(=O)[C@@H]3CCCN(N3)C2=O)C(C)C)C1 (atropisomer, axis not shown) [Example A504]"
  Data value: "5.00 to 6.00"
- Molecule: "CO[C@@H](C)c1ncccc1-c1c2c3cc(ccc3n1CC(F)(F)F)-c1cccc(c1)C[C@H](NC(=O)[C@H](C(C)C)N1CC[C@]3(CCN(C(=O)C#CC(C)(C)N(C)C)C3)C1=O)C(=O)N1CCC[C@H](N1)C(=O)OCC(C)(C)C2 (atropisomer, axis not shown)"
  Data value: "5.00 to 6.00"

Okay, next one:
## Task Need pIC50 of C=CC(=O)N1C[C@H](C)N(C(=O)N(C)[C@H](C(=O)N[C@H]2Cc3nc(cs3)-c3ccc4c(c3)c(c(-c3cccnc3[C@H](C)OC)n4CC)CC(C)(C)COC(=O)[C@@H]3CCCN(N3)C2=O)C(C)C)[C@@H](C)C1 (atropisomer, axis not shown) , thanks.
## Result 6.00 to 7.00

====

# Target under test: K-Ras G12C (Homo sapiens (Human), UniProt P01116+P62937, G12C)
# Sequence (P01116-2 other isoform, or with tags, fused parts or gaps G12C): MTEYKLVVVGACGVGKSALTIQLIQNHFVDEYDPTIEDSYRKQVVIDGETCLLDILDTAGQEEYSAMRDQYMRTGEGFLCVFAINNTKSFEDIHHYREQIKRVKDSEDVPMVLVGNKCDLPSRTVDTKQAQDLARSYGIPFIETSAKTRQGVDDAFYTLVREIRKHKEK
# Sequence (P62937 whole entry): as the sequence (P62937 whole entry) above
# Method: Ras-Raf (BRAF RBD) disruption / FRET / MOA assay, KRAS G12C
# Assay type: biochemical
# Measurement setup: KRAS G12C; Ras-Raf disruption/FRET/MOA assay; read-out: IC50* KRAS G12C FRET data
pIC50: −log10 of the molar value.
Documented pIC50 across a set of compounds

- Compound: "C=CC(=O)N1CCOC2(CCN(C(=O)N(C)[C@H](C(=O)N[C@H]3Cc4nsc(n4)-c4ccc5c(c4)c(c(-c4cccnc4[C@H](C)OC)n5CC)CC(C)(C)COC(=O)[C@@H]4CCCN(N4)C3=O)C(C)C)CC2)C1 (atropisomer, axis not shown)"
  Target under test: "K-Ras G12C (Homo sapiens (Human), UniProt P01116+P62937, G12C)"
  pIC50: "7.00 to 8.00"

Would you kindly look at the next entry?
## Task Fill in: pIC50 of CCn1c(-c2cccnc2[C@H](C)OC)c2c3cc(ccc31)-c1cccc(c1)C[C@H](NC(=O)[C@H](C(C)C)N(C)C(=O)[C@H]1CCN(C(=O)/C=C/CN3CC(OC)C3)C1)C(=O)N1CCC[C@H](N1)C(=O)OCC(C)(C)C2 (atropisomer, axis not shown) [Example A204] is ___
## Result 7.00 to 8.00
